Would you mind telling me the reported solubility kinetic of each entry?
conditions: buffer; pH 7.4; 200.0 µM
Give bare numbers, in mg/mL.

Compound | Measured Attribute | Result
CCOc1ccc(/C=C2\SC(=S)N(CCC(=O)O)C2=O)cc1 | solubility kinetic | 0.0409

Please state solubility kinetic for every compound in the list that follows.
1. N/C(=N\OC(=O)c1cccs1)c1cccc(Br)c1
2. CC1CCCC(C)N1S(=O)(=O)c1ccc(Cl)cc1 (stereo not drawn)
3. S=C(NCCc1ccccc1)Nc1ccc(N2CCCCC2)cc1
4. CCOC(=O)N1CCc2c(sc3[nH]c(=S)[nH]c(=S)c23)C1

0.0085
0.0027
0.0006
0.0431

Please state solubility kinetic for every compound in the list that follows.
1. Cc1cccc(NC(=S)N2CCC(O)CC2)c1C
2. CCn1c2ccccc2c2cc(NC(=O)C(=O)N3CCOCC3)ccc21
3. Cc1cc(N2CCCC2)ccc1NC(=O)COc1ccc(Cl)cc1
4. CCC(C)C(=O)Nc1ccccc1N1CCN(c2ccc(F)cc2)CC1 (stereo not drawn)
5. COc1cccc(CNC(=O)c2ccncc2)c1
6. COCCNS(=O)(=O)c1ccc(C)c(C)c1C
7. CC(NC(=O)Nc1ccc(Cl)cc1)c1ccc2c(c1)OCO2 (stereo not drawn)
8. O=C(Nc1ccc2c(c1)OCO2)C1CC(=O)N(c2cccc(Cl)c2)C1 (stereo not drawn)

0.0365
0.0101
0.0044
0.0029
0.0363
0.0349
0.0028
0.0009

Required: solubility kinetic, one value per compound below.
1. CNc1oc(-c2ccccc2)nc1S(=O)(=O)c1ccc(C)cc1
2. CCCC1(C(=O)OCC)NC(c2ccco2)C2C(=O)N(C)C(=O)C21 (stereo not drawn)
3. CCCCNc1c(N)n(CC(C)C)c(=O)[nH]c1=O
4. Cc1ccc(CN(Cc2ccco2)C(=S)Nc2ccccc2C)cc1
5. Cc1ccc(-c2csc(NC(=O)CN3CCOCC3)n2)cc1C
6. Cc1ccc(CC(=O)O/N=C(\N)c2ccccn2)cc1
7. COc1cccc(NC(=S)NC(=O)/C=C/c2ccco2)c1

1: 0.0053; 2: 0.0462; 3: 0.0359; 4: 0.0004; 5: 0.0392; 6: 0.0275; 7: 0.0112

Quick batch: solubility kinetic for everything below.
1. C/C(=N\OCc1ccccc1C#N)c1cc2ccccc2o1
2. COC(=O)Cc1nc(Nc2ccccc2)sc1C
3. COc1cc(OC)c(C(=O)OCC(=O)Nc2ccc(S(=O)(=O)N3CCOCC3)cc2)cc1OC
4. COc1cc(OC)cc(C(=O)NCc2ccc(-n3cccc3)cc2)c1

[0.0011, 0.0343, 0.0096, 0.0004]

Look up solubility kinetic: OCc1ccc(OCCCOc2cccc3cccnc23)cc1 0.0305

---

settings: buffer; pH 7.4; 200.0 µM
Measured Attribute: log10 solubility kinetic (log10 of the value in µg/mL)
All values: log10 solubility kinetic [µg/mL].

Worked cases, log10 solubility kinetic given:
Compound | log10 solubility kinetic
N#CCc1ccc(Oc2ccc([N+](=O)[O-])cn2)cc1 | 1.55
COCn1c(C(O)c2ccccc2)cc2ccccc21 (configuration not stated) | 1.59

Each compound below has a recorded value; state its log10 solubility kinetic.
1. Cc1ccccc1NCc1ccc([N+](=O)[O-])s1
2. O=C1c2ccccc2C2(c3cc(C(F)(F)F)cc(C(F)(F)F)c3)NCCN12 (configuration not stated)
3. CCc1c(C)nc(N2CCN(c3cccc(OC)c3)CC2)[nH]c1=O

1.14
1.75
1.20

Field request: log10 solubility kinetic | item: CC1=C(C(=O)OCC2CCCCC2)C(c2ccc(O)cc2)NC(=O)N1 (configuration not stated) 0.53
